Reported cell viability by item:
test system: NOMO1; assay: cell viability relative to DMSO control; higher = less cytotoxic; details: RPMI 5 mM glucose + 10% FBS; 48 h; 0.19 µM
Give just the number in %; leave the unit off.

Take a look at these entries with their results.
molecule	cell viability (%)
C=C[C@H]1CN2CCC1C[C@@H]2[C@@H](O)c1ccnc2ccccc12 (stereo not given in full)	91.1
CCN1\C=C(C(O)=O)/C(=O)C2=C1C=C(N3CCN(C)CC3)C(=C2)F	113
FC(F)(F)C1=CC=C2C(SCCCCCO\C3=C\O\C(CN4CCOCC4)=C/C3=O)=CC=NC2=C1	135
CN(CCOc1ccc(NS(C)(=O)=O)cc1)CCc1ccc(NS(C)(=O)=O)cc1	120

// next item, cell viability requested
Exam item: GET /values?readout=cell viability&system=NOMO1&item= "O=C(c1ccc(/C=C/c2n[nH]c3ccccc23)cc1)N1CCNCC1"
Marked response: 86.2
